Origin of values: patent US20240218071A1

Reported CD95 expression on Ramos cells without crosslinking agent (FACS) is given for each of the following binders.
biological target: human CD40 expressed on the cell surface (human, UniProt P25942 21-277); assay: cell-based or functional assay
Sequence (P25942 21-277): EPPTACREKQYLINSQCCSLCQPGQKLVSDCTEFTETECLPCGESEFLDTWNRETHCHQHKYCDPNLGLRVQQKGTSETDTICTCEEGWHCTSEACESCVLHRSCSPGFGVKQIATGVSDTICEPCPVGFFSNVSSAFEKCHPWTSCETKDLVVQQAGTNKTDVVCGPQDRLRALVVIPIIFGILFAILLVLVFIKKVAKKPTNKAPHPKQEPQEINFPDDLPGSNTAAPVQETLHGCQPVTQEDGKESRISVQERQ

INSERT INTO assay_data (binder, experimental_value) VALUES
  ('C8-11 antibody (antibody, V domains shown) VH: EVQLLESGGGLVRPGGSLRLSCAASGFTPGSYEMNWVRQAPGKGLEWVSYISSAGETTDYADSVKGRFTVSRDNSKNLLYLQMNSLRAEDTAVYYCARDVFFFDSSGDNGAYGMDVWGQGTMVTVSS VL: DIQLTQSPSSLTASVGDRVTITCRSSQGIRSSLAWYQQKPGKPPKLLIYGASSLLGGVPSRFSGSGSGTDFTLTISSLQPEDFATYYCQQLNSFPSTFGQGTKLEIK', '~10 times weaker than APX005');

Then there is this binder:
Ask | Reported CD95 expression on Ramos cells without crosslinking agent (FACS), binder C8-6 antibody (antibody, V domains shown) VH: EVQLLESGGGLVRPGGSLRLSCAASGFTFGSYEMNWVRQAPGKGLEWVSYISSSGETTDYADSVKGRFTVSRDNSKNLLYLQMNSLRAEDTAVYYCARDVFFFDSSGSPGAYGMDVWGQGTMVTVSS VL: DIQLTQSPSSLTASVGDRVTITCRSSQGIRSSLAWYQQKPGKPPKLLIYGASSLEGGVPSRFSGSGSGTDFTLTISSLQPEDFATYYCQQLNSFPSTFGQGTKLEIK : ____
Reply | ~10 times weaker than APX005
